Source of measurements: paper PMC7884711

# System: E. coli DH5α cells
# MEASUREMENT PROTOCOL: Inhibition of bacterial cell growth by CPPs (Max OD600 relative to control)
# Format: cell-based, Escherichia coli
# ASSAY CONTEXT: library CPPs, E. coli growth to stationary phase, relative to non-CPP-treated control; mean of n = 3
Where no end group is shown, it is not given here.

# SUBSTANCE, Max OD (%)
rows = [
    ("Tat (GRKKRRQRRRPPQRKC; also: TAMRA label, site not given here) [CPP 67, TAMRA-labeled CPP of the 98-CPP library]", "58.8%"),
    ("CTP (GGRRARRRRRR; also: TAMRA label, site not given here) [CPP 96, TAMRA-labeled CPP of the 98-CPP library]", "85.4%"),
    ("Tat48-57 (GRKKRRQRRR; also: TAMRA label, site not given here) [CPP 70, TAMRA-labeled CPP of the 98-CPP library]", "80.8%"),
    ("Tat49-57 (RKKRRQRRR; also: TAMRA label, site not given here) [CPP 45, TAMRA-labeled CPP of the 98-CPP library]", "69.5%"),
    ("TatsMTS (TMG) (GRKKRRQRRRMVSAL; also: TAMRA label, site not given here) [CPP 71, TAMRA-labeled CPP of the 98-CPP library]", "80.8%"),
]
